Test system: NCI-H522 lung
Test: NCI-60 one-dose screen, 48 h (100 = growth as untreated, 0 = no growth, -100 = all killed)
Conditions: 10 µM unless noted
Protocol: Growth inhibition of the NCI-H522 human Non-Small Cell Lung tumor cell line is measured as a screen for anti-cancer activity. Cells are grown in 96 well plates and exposed to the test compound for 48 hours. Compounds are tested at a single concentration, which is 10^-5 M for most compounds. The reported endpoint is percent growth (GI% or GIPRCNT), where numbers from 0 - 100% represent growth inhibition, and numbers from -100% - 0 represent cell death. […]
The panel holds about 83,000 compounds, 20% with a hit somewhere; the sample as a whole holds those more often.
Entry flag: true (1) if growth reaches 70%; false (0) if it does not.

INSERT INTO results (compound, cat) VALUES
  ('Cc1cc(N=O)cc(C(C)(C)C)c1O', 'true (1)');

In: Is growth at least 70%? Consider C[C@@H]1CCCCCCCCC[C@H](O)C(=O)C[C@@H](SC[C@@H](O)C(=O)O)C(=O)O1
Out: false (0)

In: Quick check: does COc1cc2[nH]c(C(=O)c3cc(OC)c(OC)c(OC)c3)c(N)c2cc1C#CCO have growth greater than or equal to 70%?
Out: false (0)

In: Answer whether growth of C=C(C)[C@@H]1CC[C@]2(c3nnc(-c4ccncc4)o3)CC[C@]3(C)[C@H](CC[C@@H]4[C@@]5(C)CCC(=O)NC(C)(C)[C@@H]5CC[C@]43C)[C@@H]12 is greater than or equal to 70%.
Out: true (1)

In: Could you please find out whether CC1c2ccccc2N(S(=O)(=O)c2ccccc2)C1C (centres undefined) has growth that meets 70% or exceeds it?
Out: true (1)

In: Hello, I need to know if Nc1c2c(nc3ccc(Br)cc13)CC(c1ccccc1)CC2=O (centres undefined) has measured growth not below 70%. Thanks!
Out: false (0)

In: Dear colleague, could you confirm whether COc1cc(-c2cc3cc(O)ccc3oc2=O)cc(OC)c1OC has growth at or above 70%?
Out: true (1)

In: Has COc1ccc(NC(=O)c2ccoc2COc2ccccc2)cc1 a recorded growth greater than or equal to 70%?
Out: true (1)

In: # bool: growth of O=C(N/N=C/c1ccccc1SSc1ccccc1/C=N/NC(=O)c1ccccc1)c1ccccc1 >= 70%
Out: false (0)

In: Quick check, growth >= 70%? Cc1nn2c(-c3nc4cc(Cl)c(Cl)cc4[nH]3)c(-c3ccc(F)cc3)nc2s1
Out: false (0)

In: Test whether the compound CCCCCCCC(=O)SCC/C=C/[C@@H]1CC(=O)NCc2cccc(n2)CN(Cc2ccc(Cl)cc2)CC(=O)N[C@@H](C(C)C)C(=O)O1 records growth of 70% or higher.
Out: false (0)

Value source: PubChem BioAssay (NCI)
